biological target: hOX1R (Homo sapiens, UniProt O43613); construct: expressed in transfected cells; host or cells: CHO cells; experiment: FLIPR Ca2+ Flux Assay, CHO cells expressing the orexin-1 receptor; type: cell-based; settings: agonist 70 pM Ala-6,12 orexin-A
Sequence (O43613 whole entry): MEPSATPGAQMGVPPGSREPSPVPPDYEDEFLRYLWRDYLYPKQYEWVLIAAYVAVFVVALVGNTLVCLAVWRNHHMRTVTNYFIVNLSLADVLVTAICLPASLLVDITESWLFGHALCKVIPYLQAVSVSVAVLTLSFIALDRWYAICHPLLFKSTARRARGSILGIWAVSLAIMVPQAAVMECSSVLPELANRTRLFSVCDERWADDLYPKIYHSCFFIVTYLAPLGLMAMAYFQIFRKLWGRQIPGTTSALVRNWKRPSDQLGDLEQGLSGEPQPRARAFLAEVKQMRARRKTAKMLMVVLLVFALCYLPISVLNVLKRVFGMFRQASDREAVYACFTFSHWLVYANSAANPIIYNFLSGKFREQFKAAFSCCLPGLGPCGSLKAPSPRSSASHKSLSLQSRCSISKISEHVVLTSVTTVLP
Rule: measured IC50 below 200 nM gets True; anything equal to or greater than 200 nM gets False.

- smiles_representation: "COC(=O)c1c(OC)ccnc1N[C@@H]1CC[C@@H](C)N(C(=O)c2ncccc2-c2ncccn2)C1"
  class_name: "False"
- smiles_representation: "COC(=O)c1c(OC)ccnc1N[C@@H]1CC[C@@H](C)N(C(=O)c2cccc(F)c2-c2noc(C)n2)C1"
  class_name: "False"
- smiles_representation: "COC(=O)c1c(C#N)ccnc1N[C@@H]1CC[C@@H](C)N(C(=O)c2ccccc2-n2nccn2)C1"
  class_name: "True"
- smiles_representation: "COC(=O)c1c(OC)ccnc1N[C@@H]1CC[C@@H](C)N(C(=O)c2c(F)cccc2-c2ncccn2)C1"
  class_name: "True"
- smiles_representation: "COC(=O)c1c(OC)ccnc1N[C@@H]1CC[C@@H](C)N(C(=O)c2ccccc2-n2ncnn2)C1"
  class_name: "False"
- smiles_representation: "COC(=O)c1c(OC)ccnc1N[C@@H]1CC[C@@H](C)N(C(=O)c2cc(F)ccc2-c2ncccn2)C1"
  class_name: "True"
- smiles_representation: "COC(=O)c1c(OC)ccnc1N[C@@H]1CC[C@@H](C)N(C(=O)c2c(F)cccc2-c2noc(C)n2)C1"
  class_name: "False"
- smiles_representation: "COC(=O)c1c(OC)ccnc1N[C@@H]1CC[C@@H](C)N(C(=O)c2sccc2-c2ncccn2)C1"
  class_name: "False"
- smiles_representation: "COC(=O)c1c(OC)ccnc1N[C@@H]1CC[C@@H](C)N(C(=O)c2cc(F)ccc2-n2nccn2)C1"
  class_name: "False"
- smiles_representation: "COC(=O)c1c(OC)ccnc1N[C@@H]1CC[C@@H](C)N(C(=O)c2c(F)cccc2-c2nc(C)no2)C1"
  class_name: "False"
- smiles_representation: "COC(=O)c1c(C#N)ccnc1N[C@@H]1CC[C@@H](C)N(C(=O)c2ccccc2-c2ncccn2)C1"
  class_name: "True"
- smiles_representation: "COC(=O)c1c(OC)ccnc1N[C@@H]1CC[C@@H](C)N(C(=O)c2ccccc2-c2nc(C)no2)C1"
  class_name: "False"
- smiles_representation: "COC(=O)c1c(OC)ccnc1N[C@@H]1CC[C@@H](C)N(C(=O)c2ccccc2-c2ncccn2)C1"
  class_name: "True"
- smiles_representation: "COC(=O)c1c(OC)ccnc1N[C@@H]1CC[C@@H](C)N(C(=O)c2ccc(F)cc2-c2ncccn2)C1"
  class_name: "True"

----------
Target: UniProt:O43614
Sequence (O43614 1-444): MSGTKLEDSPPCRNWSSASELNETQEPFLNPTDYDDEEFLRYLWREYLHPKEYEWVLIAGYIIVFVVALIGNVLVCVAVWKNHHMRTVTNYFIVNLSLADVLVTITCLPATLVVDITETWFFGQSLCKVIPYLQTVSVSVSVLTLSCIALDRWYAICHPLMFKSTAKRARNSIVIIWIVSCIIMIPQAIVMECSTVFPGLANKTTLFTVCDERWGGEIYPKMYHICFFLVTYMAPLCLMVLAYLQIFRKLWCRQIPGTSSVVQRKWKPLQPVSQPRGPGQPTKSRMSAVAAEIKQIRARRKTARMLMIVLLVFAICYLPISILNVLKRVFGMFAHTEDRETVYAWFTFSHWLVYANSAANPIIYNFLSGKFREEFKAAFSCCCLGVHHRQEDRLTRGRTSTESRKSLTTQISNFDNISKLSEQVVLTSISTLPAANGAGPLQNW
Assay: FLIPR Ca2+ Flux Assay, CHO cells expressing the human orexin-2 receptor
Details: agonist 70 pM Ala-6,12 orexin-A, read-out: hOX2R FLIPR IC50
pIC50: −log10 of the molar value.
recorded_endpoint: pIC50

- smiles_representation: "COC(=O)c1c(OC)ccnc1N[C@@H]1CC[C@@H](C)N(C(=O)c2ccccc2-c2ncccn2)C1"
  target_of_assay: "UniProt:O43614"
  recorded_endpoint: "pIC50"
  endpoint_result: 7.39
- smiles_representation: "COC(=O)c1c(C#N)ccnc1N[C@@H]1CC[C@@H](C)N(C(=O)c2ccccc2-n2nccn2)C1"
  target_of_assay: "UniProt:O43614"
  recorded_endpoint: "pIC50"
  endpoint_result: 7.62
- smiles_representation: "COC(=O)c1c(OC)ccnc1N[C@@H]1CC[C@@H](C)N(C(=O)c2cccc(F)c2-n2nccn2)C1"
  target_of_assay: "UniProt:O43614"
  recorded_endpoint: "pIC50"
  endpoint_result: 7.35
- smiles_representation: "COC(=O)c1c(OC)ccnc1N[C@@H]1CC[C@@H](C)N(C(=O)c2c(F)cccc2-c2ncccn2)C1"
  target_of_assay: "UniProt:O43614"
  recorded_endpoint: "pIC50"
  endpoint_result: 7.42
- smiles_representation: "COC(=O)c1c(OC)ccnc1N[C@@H]1CC[C@@H](C)N(C(=O)c2ccccc2-c2nc(C)no2)C1"
  target_of_assay: "UniProt:O43614"
  recorded_endpoint: "pIC50"
  endpoint_result: 7.13
- smiles_representation: "COC(=O)c1c(OC)ccnc1N[C@@H]1CC[C@@H](C)N(C(=O)c2cccc(F)c2-c2ncccn2)C1"
  target_of_assay: "UniProt:O43614"
  recorded_endpoint: "pIC50"
  endpoint_result: 7.28
- smiles_representation: "COC(=O)c1c(OC)ccnc1N[C@@H]1CC[C@@H](C)N(C(=O)c2ccsc2-c2ncccn2)C1"
  target_of_assay: "UniProt:O43614"
  recorded_endpoint: "pIC50"
  endpoint_result: 7.24
- smiles_representation: "COC(=O)c1c(OC)ccnc1N[C@@H]1CC[C@@H](C)N(C(=O)c2cc(F)ccc2-c2ncccn2)C1"
  target_of_assay: "UniProt:O43614"
  recorded_endpoint: "pIC50"
  endpoint_result: 7.29
- smiles_representation: "COC(=O)c1cccnc1N[C@@H]1CC[C@@H](C)N(C(=O)c2ccccc2-n2nccn2)C1"
  target_of_assay: "UniProt:O43614"
  recorded_endpoint: "pIC50"
  endpoint_result: 7.42
- smiles_representation: "COC(=O)c1c(OC)ccnc1N[C@@H]1CC[C@@H](C)N(C(=O)c2c(F)cccc2-c2noc(C)n2)C1"
  target_of_assay: "UniProt:O43614"
  recorded_endpoint: "pIC50"
  endpoint_result: 7.06
- smiles_representation: "COC(=O)c1c(C#N)ccnc1N[C@@H]1CC[C@@H](C)N(C(=O)c2ccccc2-c2ncccn2)C1"
  target_of_assay: "UniProt:O43614"
  recorded_endpoint: "pIC50"
  endpoint_result: 7.32
- smiles_representation: "COC(=O)c1c(OC)ccnc1N[C@@H]1CC[C@@H](C)N(C(=O)c2ccc(F)cc2-c2ncccn2)C1"
  target_of_assay: "UniProt:O43614"
  recorded_endpoint: "pIC50"
  endpoint_result: 7.36
- smiles_representation: "COC(=O)c1c(OC)ccnc1N[C@@H]1CC[C@@H](C)N(C(=O)c2sccc2-c2ncccn2)C1"
  target_of_assay: "UniProt:O43614"
  recorded_endpoint: "pIC50"
  endpoint_result: 7.40
- smiles_representation: "COC(=O)c1c(OC)ccnc1N[C@@H]1CC[C@@H](C)N(C(=O)c2ccccc2-n2nccn2)C1"
  target_of_assay: "UniProt:O43614"
  recorded_endpoint: "pIC50"
  endpoint_result: 7.60
- smiles_representation: "COC(=O)c1c(OC)ccnc1N[C@@H]1CC[C@@H](C)N(C(=O)c2cc(F)ccc2-n2nccn2)C1"
  target_of_assay: "UniProt:O43614"
  recorded_endpoint: "pIC50"
  endpoint_result: 7.35

Recorded values, source patent US9676751B2.
